Measured On: Voltage-gated potassium channel subunit beta-2 (Rattus norvegicus) (UniProt P62483)
Sequence (P62483 whole entry, looked up): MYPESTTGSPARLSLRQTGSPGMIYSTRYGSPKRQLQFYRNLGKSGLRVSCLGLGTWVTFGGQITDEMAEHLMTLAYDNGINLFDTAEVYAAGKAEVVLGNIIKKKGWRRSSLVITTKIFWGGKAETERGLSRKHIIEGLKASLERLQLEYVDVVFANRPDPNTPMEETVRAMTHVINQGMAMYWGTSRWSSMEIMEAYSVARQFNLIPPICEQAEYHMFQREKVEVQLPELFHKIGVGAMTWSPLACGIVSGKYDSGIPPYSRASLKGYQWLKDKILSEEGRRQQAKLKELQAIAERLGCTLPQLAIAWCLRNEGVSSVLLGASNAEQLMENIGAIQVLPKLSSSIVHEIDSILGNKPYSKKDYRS
Protocol Notes: KvBeta enzyme negative modulators, primary screen, biochemical, NADPH fluorescence (AID 622);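 also: slope of raw intensity against log time taken from 70 to 1610 s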
Condition Notes: recombinant KvBeta, 4-cyanobenzaldehyde reduction, at 10 µM, stronger effect = higher value
Tick label 1 if fluorescence slope is -0.4 or greater. Tick label 0 if fluorescence slope is less than -0.4.

# Compound, Group Label
rows = [
    ("Cc1ccccc1OCc1nc2ccccc2c(=O)n1NC(=O)c1ccco1", "label 0"),
    ("Cc1ccc2[nH]c3c(N4CCCCCC4)ncnc3c2c1", "label 0"),
    ("CC(=O)c1cc(C#N)c(SCc2ccncc2)nc1C", "label 0"),
    ("CCCOc1ccc(/C(O)=C2/C(=O)C(=O)N(CCN3CCOCC3)C2c2ccccc2)cc1 (centres undefined)", "label 0"),
    ("CC1(C)Cc2c(sc3nc4n(c(=O)c23)CCC4)CO1", "label 1"),
    ("COc1ccc2c(=O)c(-c3nc(C)cs3)coc2c1", "label 0"),
    ("COc1ccc(-c2c3c([nH]c(=S)c2C#N)CCC3)cc1", "label 1"),
    ("COc1cccc(C2C(C#N)=C(N)Oc3cc(C)[nH]c(=O)c32)c1OC (centres undefined)", "label 0"),
    ("CCCn1c(=O)c2[nH]c(C3CCCC3)nc2n(CCC)c1=O", "label 0"),
    ("Cc1cc(NC(=O)CSc2nc(-c3cccnc3)ccc2C#N)no1", "label 0"),
    ("O=C(O)c1cc2cc(F)ccc2[nH]1", "label 0"),
    ("O=C(CSc1nnc(-c2ccco2)c(-c2ccco2)n1)Nc1ccccc1", "label 1"),
    ("COc1cccc(C(=O)N2CCN(S(=O)(=O)Cc3ccccc3)CC2)c1OC", "label 1"),
    ("C=CCOc1nc2c(c(=O)n(C)c(=O)n2C)n1Cc1ccc(Cl)cc1Cl", "label 0"),
    ("COC(=O)c1ccc(=O)n(Cc2ccc3c(c2)OCO3)c1", "label 0"),
    ("CN(CC(O)COc1ccc(OCC(O)CN(C)C2CCCCC2)cc1)C1CCCCC1 (centres undefined)", "label 1"),
    ("Cn1ncc2c(Nc3ccccc3Br)ncnc21", "label 0"),
    ("CSc1sc(C(=O)O)c2c1C(=O)CCC2", "label 0"),
    ("CCCCCNC(=O)c1c(N)n(/N=C/c2ccco2)c2nc3ccccc3nc12", "label 0"),
    ("CCOP(=O)(c1ccccc1)c1nc(-c2ccc(F)cc2)oc1N1CCCCC1 (centres undefined)", "label 0"),
    ("Cc1ccc2nc(NCc3ccccc3)[nH]c2c1", "label 0"),
]

* * *

Below is a list of entries, each paired with its recorded nuclei count value.
Protocol Notes: inhibitors of E-selectin induction by TNFa, primary screen, imaging, HUVEC, immunofluorescence, MLSMR starter and 10KST1 sets (AID 487);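 also: 100% = median nuclei count of all wells on the same plate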
Condition Notes: HUVEC TNFalpha-induced E-selectin immunofluorescence imaging, at 2 µM; measured here: cell number, toxicity

# Compound, nuclei count
data = [
    ("COc1cccc(C2/C(=C(/O)c3ccc(C)cc3)C(=O)C(=O)N2Cc2ccco2)c1 (configuration not stated)", "123%"),
    ("O=C(CCC1CCCC1)N1CCC(N2CCN(c3ccccc3)CC2)CC1", "140%"),
    ("CCCCCC1CC(CC#CCN2CCOCC2)C(=O)O1 (configuration not stated)", "128%"),
    ("Cc1oc2nc(SCCCC(=O)NCCCO)nc(N)c2c1C", "116%"),
    ("CC(=O)OC12CC3CC(C1)C(=NO)C(C3)C2", "127%"),
    ("CN(C)CC(O)COc1ccc(-c2ccc(C#N)cc2)cc1 (configuration not stated)", "139%"),
    ("Clc1ccccc1-c1nn2c(-c3ccccn3)nnc2s1", "167%"),
    ("Clc1ccc(-c2nnc3sc(Cc4cccs4)nn23)c(Cl)c1", "169%"),
    ("CCCCCC(=O)N1CC2(CC)CN(C(=O)CCCCC)CC(CC)(C1)C2=O", "117%"),
    ("OCC(O)CN1CCN(c2ccccc2)CC1 (configuration not stated)", "122%"),
    ("Cc1cc(OCCN2CCCCC2)nc2ccccc12", "95%"),
    ("N#CCc1nc2c3c4c(sc3ncn2n1)CCCC4", "130%"),
]
